src = ChEMBL document CHEMBL1201862

# subject.of.test: Short transient receptor potential channel 4 (Mus musculus)
# Sequence (Q9QUQ5 whole entry): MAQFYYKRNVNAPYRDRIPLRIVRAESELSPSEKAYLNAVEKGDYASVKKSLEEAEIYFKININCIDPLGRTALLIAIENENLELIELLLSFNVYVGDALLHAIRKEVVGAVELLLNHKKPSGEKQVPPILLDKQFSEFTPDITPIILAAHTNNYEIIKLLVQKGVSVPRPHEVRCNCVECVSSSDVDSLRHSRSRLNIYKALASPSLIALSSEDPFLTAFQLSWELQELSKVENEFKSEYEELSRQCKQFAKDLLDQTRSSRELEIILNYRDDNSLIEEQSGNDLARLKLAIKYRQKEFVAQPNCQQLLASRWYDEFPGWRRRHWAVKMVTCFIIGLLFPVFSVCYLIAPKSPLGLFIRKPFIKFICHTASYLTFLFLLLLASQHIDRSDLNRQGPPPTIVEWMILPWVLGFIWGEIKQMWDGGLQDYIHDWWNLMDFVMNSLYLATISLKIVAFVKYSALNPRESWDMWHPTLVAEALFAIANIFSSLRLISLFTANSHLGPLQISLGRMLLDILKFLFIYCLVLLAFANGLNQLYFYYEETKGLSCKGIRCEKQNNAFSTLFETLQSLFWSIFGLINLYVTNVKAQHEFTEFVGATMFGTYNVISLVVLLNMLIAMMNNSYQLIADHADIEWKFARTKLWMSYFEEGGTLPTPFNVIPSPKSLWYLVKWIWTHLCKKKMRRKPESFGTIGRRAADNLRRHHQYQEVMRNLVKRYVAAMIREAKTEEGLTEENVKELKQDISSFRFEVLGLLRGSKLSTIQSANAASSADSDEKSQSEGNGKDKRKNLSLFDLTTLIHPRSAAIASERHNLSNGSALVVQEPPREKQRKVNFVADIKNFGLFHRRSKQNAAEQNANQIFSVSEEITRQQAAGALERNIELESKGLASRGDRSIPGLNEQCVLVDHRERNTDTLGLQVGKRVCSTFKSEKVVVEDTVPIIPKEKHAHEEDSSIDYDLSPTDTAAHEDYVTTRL
# method.description: mouse TRPC4 channel inhibitors, dose response, cell-based, HEK293 TRPC4/mu-opioid, Fluo-4 calcium (AID 434942);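 note: potency of inhibitors blocking the TRPC4 calcium response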
# Format: functional
The source made the active and inactive calls. The rule behind the calls is not given here.
endpoint: EC50

The examples below pair each entry with its known result.
O=C(COC(=O)c1cccc([N+](=O)[O-])c1)c1ccc2c(c1)OCO2 = 2.7 nM (active)
Cc1cc([N+](=O)[O-])ccc1NCc1ccco1 = 5960 nM (active)
OCC(Cc1ccccc1)NCc1ccccc1C(F)(F)F (stereo unspecified) = 8410 nM (active)
CCC(=O)N1CCc2cc(S(=O)(=O)NCCN3CCCCC3CC)ccc21 (stereo unspecified) = 2660 nM (active)
COc1ccc(/C=C/C(=O)Nc2ccccc2C(=O)NCC(c2ccc(OC)cc2)N(C)C)cc1 (stereo unspecified) = 188 nM (active)

Now look at this one.
Briefly, EC50 measured for CC(C)NCC(O)COCCOc1ccc(C(C)(C)C)cc1 (stereo unspecified) : 1060 nM (active)
